- System: DU145 cells
- METHOD DESCRIPTION: Soft agar colony formation assay
- Type: cell-based
- STUDY CONDITIONS: Homo sapiens, DU-145, 504 h, about three weeks, read-out: EC50 for inhibition of soft agar colony formation
REPORTED METRIC: EC50 (nM)
Give bare numbers, in nM.

Would you be so kind as to report EC50 for each listed record?
1. N=C(N)c1ccc(COc2cc(Oc3ccc(C(=N)N)cc3)cc(C(=O)N3CCC(CCN)CC3)c2)cc1
2. [H]/N=C(\N)c1ccc(Oc2cc(Oc3ccc(/C(N)=N/[H])cc3)cc(C(=O)NC3CCC(N)CC3)c2)cc1 (centres unmarked)
3. N=C(N)c1ccc(Oc2cc(OCc3ccc(Br)cc3)cc(C(=O)NC3CCC(N)CC3)c2)cc1 (centres unmarked)
4. N=C(N)c1ccc(Oc2cc(C(=O)NC3CCC(N)CC3)cc(Oc3ccc(C(=N)N)cc3)n2)cc1 (centres unmarked)
5. N=C(N)c1ccc(Oc2cc(OCc3cccc(CN)c3)cc(C(=O)NC3CCC(N)CC3)c2)cc1 (centres unmarked)

100
200
700
500
900

###

- TARGET OF ASSAY: Purified recombinant matriptase (Homo sapiens)
- METHOD DESCRIPTION: Matriptase fluorescence-based enzymatic assay (Boc-Gln-Ala-Arg-AMC cleavage)
- Format: biochemical
REPORTED METRIC: pIC50
Answers are plain numbers, as −log10 of the molar value.

Quickly give me recorded pIC50 for N=C(N)c1ccc(Oc2cc(C(=O)NC3CCC(N)CC3)cc(Oc3ccc(C(=N)N)cc3)n2)cc1 (stereo not shown) [Example 13] 7.70

###

- TARGET OF ASSAY: Purified recombinant matriptase (Homo sapiens, UniProt Q9Y5Y6)
- Sequence (Q9Y5Y6 whole entry): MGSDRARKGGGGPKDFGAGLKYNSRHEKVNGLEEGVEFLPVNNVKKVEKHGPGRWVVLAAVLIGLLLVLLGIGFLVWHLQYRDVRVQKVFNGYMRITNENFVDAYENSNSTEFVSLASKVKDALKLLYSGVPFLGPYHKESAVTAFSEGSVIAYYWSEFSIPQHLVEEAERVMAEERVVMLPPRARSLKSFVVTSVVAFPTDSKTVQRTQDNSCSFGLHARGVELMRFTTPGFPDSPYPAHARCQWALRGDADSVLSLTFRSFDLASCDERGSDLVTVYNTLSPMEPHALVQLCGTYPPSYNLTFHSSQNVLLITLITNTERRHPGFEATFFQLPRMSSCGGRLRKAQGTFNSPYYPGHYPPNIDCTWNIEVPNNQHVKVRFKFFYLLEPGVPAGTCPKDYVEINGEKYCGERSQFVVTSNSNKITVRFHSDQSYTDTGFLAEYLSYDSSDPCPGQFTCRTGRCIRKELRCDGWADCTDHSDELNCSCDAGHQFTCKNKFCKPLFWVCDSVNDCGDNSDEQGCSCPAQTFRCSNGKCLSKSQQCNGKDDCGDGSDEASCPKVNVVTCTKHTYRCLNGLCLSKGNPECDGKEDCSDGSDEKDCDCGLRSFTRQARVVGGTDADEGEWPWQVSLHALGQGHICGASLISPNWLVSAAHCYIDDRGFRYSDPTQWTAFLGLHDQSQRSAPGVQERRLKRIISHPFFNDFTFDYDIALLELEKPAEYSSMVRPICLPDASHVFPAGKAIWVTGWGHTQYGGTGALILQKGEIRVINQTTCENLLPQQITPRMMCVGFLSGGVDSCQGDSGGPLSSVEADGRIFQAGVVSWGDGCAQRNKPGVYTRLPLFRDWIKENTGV
- METHOD DESCRIPTION: Matriptase fluorescence-based enzymatic assay (Boc-Gln-Ala-Arg-AMC cleavage)
- Type: biochemical
- STUDY CONDITIONS: Table 1; read-out: Matriptase Inhibition IC50
- From the text: Purified recombinant matriptase was used in a fluorescence-based screening assay using Gln-Ala-Arg peptide as a substrate. In this assay the cleavage of AMC from Boc-Gln-Ala-Arg-7-amido-4 methylcoumarin hydrochloride (Boc-Gln-Ala-Arg-AMC) (Sigma, USA) was monitored by measuring the increase in fluorescence intensity of AMC released upon proteolytic cleavage at 480 nm (kex=360 nm). […]
Would you mind telling me the reported pIC50 of each entry?
Numbers only, as −log10 of the molar value.

Use the examples below as a reference point.
INSERT INTO results (compound, target_of_assay, observed) VALUES
  ('N=C(N)c1ccc(Oc2cc(Oc3ccc(C(=N)N)cc3)cc(C(=O)OC3CCC(N)CC3)c2)cc1 (stereo not shown) [Example 103]', 'Purified recombinant matriptase (Homo sapiens, UniProt Q9Y5Y6)', 8.70),
  ('N=C(N)c1ccc(Oc2cc(OCc3cccc(CN)c3)cc(C(=O)NC3CCC(N)CC3)c2)cc1 (stereo not shown) [Example 47]', 'Purified recombinant matriptase (Homo sapiens, UniProt Q9Y5Y6)', 7.42),
  ('[H]/N=C(\N)c1ccc(Oc2cc(Oc3ccc(/C(N)=N/[H])cc3)cc(C(=O)NC3CCC(N)CC3)c2)cc1 (stereo not shown) [Example 27]', 'Purified recombinant matriptase (Homo sapiens, UniProt Q9Y5Y6)', 7.77),
  ('N=C(N)c1ccc(Oc2cc(OCc3cccc(C(=N)N)c3)cc(C(=O)NC3CCC(N)CC3)c2)cc1 (stereo not shown) [Example 42]', 'Purified recombinant matriptase (Homo sapiens, UniProt Q9Y5Y6)', 8.00),
  ('N=C(N)c1ccc(Oc2cc(OCc3cccc(C(=N)N)c3)cc(C(=O)N3CCC(CCN)CC3)c2)cc1 [Example 57]', 'Purified recombinant matriptase (Homo sapiens, UniProt Q9Y5Y6)', 7.54),
  ('N=C(N)c1ccc(Oc2cc(Oc3ccc(C(=N)N)cc3Cl)cc(C(=O)NC3CCC(N)CC3)c2)cc1 (stereo not shown) [Example 69]', 'Purified recombinant matriptase (Homo sapiens, UniProt Q9Y5Y6)', 7.72);

Would you be so kind as to report pIC50 for each listed record?
1. N=C(N)c1cccc(COc2cc(OCc3cccc(C(=N)N)c3)cc(C(=O)NC3CCC(N)CC3)c2)c1 (stereo not shown) [Example 77]
2. N=C(N)c1ccc(Oc2cc(NC(=O)[C@H]3CC[C@H](N)CC3)cc(Oc3ccc(C(=N)N)cc3)c2)cc1 [Example 108]
3. N=C(N)c1ccc(COc2cc(Oc3ccc(C(=N)N)cc3)cc(C(=O)N3CCC(CCN)CC3)c2)cc1 [Example 58]
4. N=C(N)c1ccc(Oc2cc(NC(=O)C3CCN(CCO)CC3)cc(Oc3ccc(C(=N)N)cc3)c2)cc1 [Example 111]
5. Cc1cc(Oc2cc(Oc3ccc(C(=N)N)cc3)cc(C(=O)NC3CCC(N)CC3)c2)ccc1C(=N)N (stereo not shown) [Example 74]
6. N=C(N)CCCCOc1cc(Oc2ccc(C(=N)N)cc2)cc(C(=O)NC2CCC(N)CC2)c1 (stereo not shown) [Example 65]

1. 8.30
2. 8.40
3. 7.46
4. 7.54
5. 7.88
6. 7.77

Would you be so kind as to report pIC50 for each listed record?
1. N=C(N)c1ccc(Oc2cc(OCc3ccc(Br)cc3)cc(C(=O)NC3CCC(N)CC3)c2)cc1 (stereo not shown) [Example 51]
2. N=C(N)CCCCCOc1cc(Oc2ccc(C(=N)N)cc2)cc(C(=O)NC2CCC(N)CC2)c1 (stereo not shown) [Example 66]
3. N=C(N)c1cccc(COc2cc(NC(=O)C3CCC(N)CC3)cc(OCc3cccc(C(=N)N)c3)c2)c1 (stereo not shown) [Example 119]

1. 6.42
2. 7.79
3. 8.15

Would you be so kind as to report pIC50 for each listed record?
1. N=C(N)c1ccc(Oc2cc(Oc3ccc(C(=N)N)cc3)cc(C(=O)N3CCN(CCN)CC3)c2)cc1 [Example 31]
2. N=C(N)c1ccc(COc2cc(Oc3ccc(C(=N)N)cc3)cc(C(=O)NC3CCC(N)CC3)c2)cc1 (stereo not shown) [Example 43]
3. N=C(N)c1ccc(Oc2cc(OCc3ccc(CN)cc3)cc(C(=O)NC3CCC(N)CC3)c2)cc1 (stereo not shown) [Example 45]
4. N=C(N)c1ccc(Oc2cc(Oc3ccc(CN)cc3)cc(C(=O)NC3CCC(N)CC3)c2)cc1 (stereo not shown) [Example 84]

7.06
7.80
7.32
7.20

###

- System: DU145 cells
- METHOD DESCRIPTION: Cytotoxicity, Calcein AM assay, DU145
- Type: cell-based
- STUDY CONDITIONS: Homo sapiens, DU-145, 96 h, four days of incubation, read-out: Cell survival at 10 μM (%)
- Description: Cytotoxicity of the compounds was tested in cell lines or primary cells using Calcein AM assay. This assay measures cell viability by quantitation of cleaved fluorescent product of a cell permeable substrate that is retained in the cytoplasm of cells with uncompromised cytoplasmic membrane integrity. […] The cells were then allowed to incubate at 37° C. for half an hour followed by reading on the fluorimeter. […]
REPORTED METRIC: viability at 10 µM (%)
Give bare numbers, in %.

Use the examples below as a reference point.
INSERT INTO assay_data (compound, target_of_assay, reported_metric, observed) VALUES
  ('N=C(N)CCCCOc1cc(Oc2ccc(C(=N)N)cc2)cc(C(=O)NC2CCC(N)CC2)c1 (stereo not drawn)', 'DU145 cells', 'viability at 10 µM', 96),
  ('N=C(N)c1ccc(Oc2cc(Oc3ccc(CN)cc3)cc(C(=O)NC3CCC(N)CC3)c2)cc1 (stereo not drawn)', 'DU145 cells', 'viability at 10 µM', 100),
  ('N=C(N)c1ccc(Oc2cc(OCc3ccc(Br)cc3)cc(C(=O)NC3CCC(N)CC3)c2)cc1 (stereo not drawn)', 'DU145 cells', 'viability at 10 µM', 93);

Would you be so kind as to report viability at 10 µM for each listed record?
1. [H]/N=C(\N)c1ccc(Oc2cc(Oc3ccc(/C(N)=N/[H])cc3)cc(C(=O)NC3CCC(N)CC3)c2)cc1 (stereo not drawn)
2. N=C(N)c1ccc(Oc2cc(OCc3cccc(CN)c3)cc(C(=O)NC3CCC(N)CC3)c2)cc1 (stereo not drawn)
3. Cc1cc(Oc2cc(Oc3ccc(C(=N)N)cc3)cc(C(=O)NC3CCC(N)CC3)c2)ccc1C(=N)N (stereo not drawn)
4. N=C(N)c1ccc(COc2cc(Oc3ccc(C(=N)N)cc3)cc(C(=O)N3CCC(CCN)CC3)c2)cc1
5. N=C(N)CCCCCOc1cc(Oc2ccc(C(=N)N)cc2)cc(C(=O)NC2CCC(N)CC2)c1 (stereo not drawn)
6. N=C(N)c1cc(F)c(Oc2cc(Oc3ccc(CN)cc3)cc(C(=O)NC3CCC(N)CC3)c2)c(F)c1 (stereo not drawn)

1: 100; 2: 100; 3: 95; 4: 100; 5: 87; 6: 113
